Every entry's value here was drawn from the OPERA property sets (Mansouri et al. 2018).

CONDITION INFO: pH 6.5; 23 °C
VALUE TYPE: solubility
Be sure to follow the number with its unit.

Incoming: Requested field: solubility. Item: CCCCOC(=O)C(C)Oc1ccc(Oc2ccc(C(F)(F)F)cn2)cc1 (stereo unspecified)
Outgoing: 3.1 µM

----------
Parameter threshold = 4. Response is T when logP meets or exceeds it, else F.

Incoming: For this compound, is measured logP 4 or higher? "CCOC(=O)Nc1cccc(OC(=O)Nc2ccccc2)c1"
Outgoing: F

Incoming: For this compound, is measured logP 4 or higher? "O=C(NC(=O)c1c(F)cccc1F)Nc1ccc(CO/N=C(/c2ccc(Cl)cc2)C2CC2)cc1"
Outgoing: T

Incoming: For this compound, is measured logP 4 or higher? "CC1=C(C)S(=O)(=O)CCS1(=O)=O"
Outgoing: F

Incoming: For this compound, is measured logP 4 or higher? "CCN(CC)C(=O)SCc1ccccc1Cl"
Outgoing: F

Incoming: For this compound, is measured logP 4 or higher? "COC(=O)Nc1cccc(OC(=O)Nc2cccc(C)c2)c1"
Outgoing: F

Incoming: For this compound, is measured logP 4 or higher? "O=C1CCc2cccc3c2N1CC3"
Outgoing: F

Incoming: For this compound, is measured logP 4 or higher? "CCOC(=O)CCN(Cc1ccccc1)SN(C)C(=O)O/N=C(/C)SC"
Outgoing: F

Incoming: For this compound, is measured logP 4 or higher? CC1(C)C(C=C(Cl)Cl)C1C(=O)OC(C#N)c1ccc(F)c(Oc2ccccc2)c1 (stereo not given)
Outgoing: T

Incoming: For this compound, is measured logP 4 or higher? CCOCCOC(=O)C(C)Oc1ccc(Oc2ncc(C(F)(F)F)cc2Cl)cc1 (stereo not given)
Outgoing: T

Incoming: For this compound, is measured logP 4 or higher? "c1coc(-c2nc3ccccc3[nH]2)c1"
Outgoing: F

Incoming: For this compound, is measured logP 4 or higher? "C=C(C)CN(CC)c1c([N+](=O)[O-])cc(C(F)(F)F)cc1[N+](=O)[O-]"
Outgoing: T

Incoming: For this compound, is measured logP 4 or higher? CC(Oc1ccc(Oc2ccc(Cl)cc2Cl)cc1)C(=O)O (stereo not given)
Outgoing: T

Incoming: For this compound, is measured logP 4 or higher? "O=C1C(Cl)=C(Cl)C(=O)N1c1ccc(F)cc1"
Outgoing: F

Incoming: For this compound, is measured logP 4 or higher? CC(Oc1ccc(Oc2cnc3cc(Cl)ccc3n2)cc1)C(=O)OCC1CCCO1 (stereo not given)
Outgoing: T

----------
Returns the class for an entry based on its logP. Class ranges: LOW: < 2; MEDIUM: ≥ 2 and < 4; HIGH: ≥ 4

Incoming: Using the reported logP, which band applies to "COc1ccc(C(=CC(=O)N2CCOCC2)c2ccc(Cl)cc2)cc1OC" ?
Outgoing: MEDIUM

Incoming: Using the reported logP, which band applies to COc1ccc(C(O)(c2cncnc2)C2CC2)cc1 (configuration not stated) ?
Outgoing: LOW

Incoming: Using the reported logP, which band applies to "O=C(NC(=O)c1c(F)cccc1F)Nc1cc(Cl)c(Oc2ncc(C(F)(F)F)cc2Cl)c(Cl)c1" ?
Outgoing: HIGH

Incoming: Using the reported logP, which band applies to CCCCOC(=O)C(C)Oc1ccc(Oc2ccc(C(F)(F)F)cn2)cc1 (configuration not stated) ?
Outgoing: HIGH

Incoming: Using the reported logP, which band applies to "CCCCCCCCn1sccc1=O" ?
Outgoing: MEDIUM

Incoming: Using the reported logP, which band applies to "C=CCNC(=O)CN(CC=C)C(=O)C(Cl)Cl" ?
Outgoing: LOW

Incoming: Using the reported logP, which band applies to CC(Oc1ccc(Oc2ncc(Cl)cc2Cl)cc1)C(=O)N1CCCO1 (configuration not stated) ?
Outgoing: MEDIUM

Incoming: Using the reported logP, which band applies to COCC(C)N(C(=O)CCl)c1c(C)csc1C (configuration not stated) ?
Outgoing: MEDIUM

Incoming: Using the reported logP, which band applies to "CCCCCCCCSCCO" ?
Outgoing: MEDIUM

Incoming: Using the reported logP, which band applies to "CCOC(=O)CCN(SN(C)C(=O)Oc1cccc2c1OC(C)(C)C2)C(C)C" ?
Outgoing: HIGH

Incoming: Using the reported logP, which band applies to "CCCN(CCC)C(=O)SCc1ccccc1" ?
Outgoing: HIGH

Incoming: Using the reported logP, which band applies to "CCOC(=O)CCCOc1ccc(Cl)cc1C" ?
Outgoing: HIGH
